half-life for assorted compounds
Biological target: UniProt P56658
Assay: Half life value of the compound
Numeric answer only, unit min assumed.

Sample answers from the record:
COMPOUND STRUCTURE STRING: Nc1ncnc2c1ncn2[C@@H]1O[C@H](CO)[C@@H](O)[C@H]1O
MEASUREMENT NAME: half-life
DATA VALUE: 0.5
//
COMPOUND STRUCTURE STRING: Nc1ncnc2c1ncn2[C@@H]1O[C@H](CO)C=C1F
MEASUREMENT NAME: half-life
DATA VALUE: 42

Pending compound:
(Q) Fill in half-life for record Nc1ncnc2c1ncn2[C@@H]1S[C@H](CO)C=C1F
(A) 33

----------
Test system: Vero
Experiment: Cytotoxicity against Vero cells
Assay type: cell-based
Conditions: Chlorocebus sabaeus
# key: entry, value: IC50

Here's what some known entries look like.
COMPOUND STRUCTURE STRING: O=c1nc(O)ccn1[C@@H]1S[C@H](CO)C=C1F
DATA VALUE: > 100 µM
//
COMPOUND STRUCTURE STRING: Nc1nc(F)nc2c1ncn2[C@@H]1S[C@H](CO)C=C1F
DATA VALUE: 7.6 µM

(Q) Give the reported IC50 for this molecule. Nc1ncnc2c1ncn2[C@@H]1S[C@H](CO)C=C1F
(A) > 100 µM

(Q) Please give measured IC50 of the following entry: Cc1cn([C@@H]2S[C@H](CO)C=C2F)c(=O)nc1O
(A) 53 µM

(Q) Return reported IC50. Input molecule: O=c1[nH]cnc2c1ncn2[C@@H]1S[C@H](CO)C=C1F
(A) > 100 µM

(Q) Please report IC50 for the following molecule: Nc1ccn([C@@H]2S[C@H](CO)C=C2F)c(=O)n1
(A) > 100 µM

(Q) Please report the measured IC50 for Nc1nc2c(ncn2[C@@H]2S[C@H](CO)C=C2F)c(=O)[nH]1
(A) > 100 µM

(Q) Indicate the recorded IC50 value for this molecule: Nc1nc(=O)n([C@@H]2S[C@H](CO)C=C2F)cc1F
(A) > 100 µM
